Data origin, for the record: ChEMBL document CHEMBL4513216

system: Plasmodium berghei; assay: Screen against P. berghei liver stage (PbLuc), transformed with Luciferase, at 10uM; type: functional, HepG2; conditions: tested at 10 uM
Out of some 69,000 compounds screened, about 8,600 (12%) showed an effect of 50% or more. Many of the other results were omitted from the sample, so strong results are more common in it than they were.
OUTCOME MEASURE: INHIBITION (%)

MOLECULE: CCN(C)c1ncnc2c1CCN(C(=O)c1cccn1C)CC2
OBSERVED: 52
//
MOLECULE: Cc1cnc2n(c1=O)C(CC(=O)NCc1ccc(Cl)cc1)CS2 (stereo unspecified)
OBSERVED: 61.2
//
MOLECULE: Cc1cnc2n(c1=O)C(CC(=O)NCc1ccc(F)cc1)CS2 (stereo unspecified)
OBSERVED: 18.3
//
MOLECULE: CN(Cc1ccco1)C[C@H]1OC[C@@H]2CCN(Cc3ccsc3)C[C@@H]21
OBSERVED: 62.4
//
MOLECULE: Cc1noc(C)c1CN1CCc2c(CNc3nccs3)n[nH]c2C1
OBSERVED: 46.6
//
MOLECULE: Cn1cccc1C(=O)N1CCc2ncnc(N3CCCC3)c2CC1
OBSERVED: 48.9
//
MOLECULE: CN(Cc1ccco1)C[C@H]1OC[C@@H]2CCN(Cc3ccncc3)C[C@@H]21
OBSERVED: -46.8
//
MOLECULE: COc1ccc(C2Nc3cc(Cl)ccc3C3=NCCN32)cc1O (stereo unspecified)
OBSERVED: 28
//
MOLECULE: COCCN1C(=O)CCC12CCCN(Cc1ccccc1F)C2 (stereo unspecified)
OBSERVED: 44.5
//
MOLECULE: Cc1cc2c(cc1CNC(Cc1cccs1)c1nccs1)OCO2 (stereo unspecified)
OBSERVED: 28.375
//
MOLECULE: CCN(C)c1ncnc2c1CCN(C(=O)c1ccsc1)CC2
OBSERVED: 14.9

###

system: Plasmodium berghei; test: Screen against P. berghei liver stage (PbLuc), transformed with Luciferase, at 10uM; format: functional, HepG2; conditions: tested at 10 uM
Out of some 69,000 compounds screened, about 8,600 (12%) showed an effect of 50% or more. For the sample, strong results were picked, then their nearest neighbours and some compounds at random.
Class boundaries, taken from values of INHIBITION, are as follows: low-valued (below 10%), mid-valued (10% to below 50%), high-valued (50% or more)

COMPOUND: O=C(CN1CCOC(CNc2cccnn2)C1)N1CCCCC1 (stereo unspecified)
CLASS ASSIGNMENT: low-valued
--
COMPOUND: COc1cccc(Cn2c(C3CCNCC3)cc3cccnc32)c1
CLASS ASSIGNMENT: mid-valued
--
COMPOUND: Cc1cccc(CN2C(=O)CO[C@@H]3CN(Cc4nccn4C)C[C@H]32)c1
CLASS ASSIGNMENT: mid-valued
--
COMPOUND: Fc1cccc(F)c1Cn1c(C2CCNCC2)cc2cccnc21
CLASS ASSIGNMENT: high-valued
--
COMPOUND: Cc1cccc(C(=O)N2CCCCC2c2nc3cc(F)ccc3[nH]2)n1 (stereo unspecified)
CLASS ASSIGNMENT: mid-valued
--
COMPOUND: CC(C)OC(=O)[C@@H]1CCN(C(=O)c2ccccn2)[C@@H]1c1ccc(F)cc1
CLASS ASSIGNMENT: low-valued
--
COMPOUND: Cc1c(C(=O)N2CCC3(CCCNC3=O)C2)sc2nc[nH]c(=O)c12 (stereo unspecified)
CLASS ASSIGNMENT: mid-valued
--
COMPOUND: Fc1ccccc1Cn1c(C2CCNCC2)cc2cccnc21
CLASS ASSIGNMENT: high-valued
--
COMPOUND: COCCn1ccnc1C1CCCN(C(=O)CSc2nnc(C)o2)C1 (stereo unspecified)
CLASS ASSIGNMENT: mid-valued

###

test system: Plasmodium berghei; experiment: Screen against P. berghei liver stage (PbLuc), transformed with Luciferase, at 10uM; type: functional, HepG2; settings: tested at 10 uM
Out of some 69,000 compounds screened, about 8,600 (12%) showed an effect of 50% or more. What follows is part of a selection rich in strong results, with near analogues and random picks from the rest.
Listed molecules paired with reported INHIBITION
OUTCOME MEASURE: INHIBITION

MOLECULE: CC(=O)NCc1nnc2n1CCN(Cc1cccs1)C2
OUTCOME MEASURE: INHIBITION
OBSERVED: 76.2%
--
MOLECULE: c1cncc(CC2CN(c3cccnc3)CCO2)c1 (configuration not stated)
OUTCOME MEASURE: INHIBITION
OBSERVED: -43%
--
MOLECULE: Cc1nnc([C@@]23CCO[C@@H]2CCN(S(=O)(=O)c2cccnc2)C3)o1
OUTCOME MEASURE: INHIBITION
OBSERVED: -1.36%
--
MOLECULE: O=C(CCN1CCCO1)N1CC[C@@H](c2ccc3ccccc3c2)[C@H](O)C1
OUTCOME MEASURE: INHIBITION
OBSERVED: 8.74%
--
MOLECULE: CCn1cnnc1CNC(=O)NC(c1ccc(OC)cc1)C1CC1 (configuration not stated)
OUTCOME MEASURE: INHIBITION
OBSERVED: 32.5%
--
MOLECULE: Cc1ccn(CCNC(=O)C2(C)CC(c3ccccc3)=NO2)n1 (configuration not stated)
OUTCOME MEASURE: INHIBITION
OBSERVED: -3.94%
--
MOLECULE: Cc1cc(C)cc(OCC(O)CN2CCN(c3nccs3)CC2)c1 (configuration not stated)
OUTCOME MEASURE: INHIBITION
OBSERVED: 53.4%
--
MOLECULE: O=C(NCCCn1nc2ccccn2c1=O)NC(C1CC1)C1CC1
OUTCOME MEASURE: INHIBITION
OBSERVED: 16.3%
--
MOLECULE: Cc1ccc(CNC(=O)CNCC2CCN(CCO)CC2)s1
OUTCOME MEASURE: INHIBITION
OBSERVED: 10.6%
--
MOLECULE: Cc1ccc2c(n1)N(CC(C)C)CCN(C(=O)Cc1ccccn1)C2
OUTCOME MEASURE: INHIBITION
OBSERVED: 2.41%
--
MOLECULE: O=C(CCN1CCCC1)N1CC[C@@H](c2ccc3ccccc3c2)[C@H](O)C1
OUTCOME MEASURE: INHIBITION
OBSERVED: 52.2%
--
MOLECULE: Cc1occc1C(=O)N1C[C@@H]2OCCN(C(C)C)[C@@H]2C1
OUTCOME MEASURE: INHIBITION
OBSERVED: 15.9%
--
MOLECULE: O=C(NCCC1=CCCCC1)NCc1nnc2n1CCC2
OUTCOME MEASURE: INHIBITION
OBSERVED: 40.3%
--
MOLECULE: Cc1ccc(CNC(=O)CN2CCN(CCO)CC2)s1
OUTCOME MEASURE: INHIBITION
OBSERVED: 5.64%
--
MOLECULE: CCS(=O)(=O)N1CC[C@H]2OCC[C@@]2(c2nnc(C)o2)C1
OUTCOME MEASURE: INHIBITION
OBSERVED: 34.6%
--
MOLECULE: CS(=O)(=O)NCC1CCCN(C(=O)Nc2ccccc2Cl)C1 (configuration not stated)
OUTCOME MEASURE: INHIBITION
OBSERVED: 9.48%
--
MOLECULE: CS(=O)(=O)NCc1nnc2n1CCN(Cc1cccs1)C2
OUTCOME MEASURE: INHIBITION
OBSERVED: 34.7%
--
MOLECULE: O=C(CCn1cccn1)N1CC[C@@H](c2ccc3ccccc3c2)[C@H](O)C1
OUTCOME MEASURE: INHIBITION
OBSERVED: -28.9%
--
MOLECULE: CC(CN1CCOCC1)NC(=O)N(C)Cc1ccc(Cl)s1 (configuration not stated)
OUTCOME MEASURE: INHIBITION
OBSERVED: -12.6%
--
MOLECULE: Cn1cc(CCNC(=O)NCc2nnc3n2CCC3)cn1
OUTCOME MEASURE: INHIBITION
OBSERVED: 59.7%
--
MOLECULE: O=C(CNC(=O)C1CC1)NCc1ccc(Cl)s1
OUTCOME MEASURE: INHIBITION
OBSERVED: -56.4%
--
MOLECULE: CC(CN1CCOCC1)NC(=O)NCCc1ccc(Cl)s1 (configuration not stated)
OUTCOME MEASURE: INHIBITION
OBSERVED: 53.4%
--
MOLECULE: CCOCC1CC2(CCN(C(=O)c3ccc4ccccc4n3)CC2)CO1 (configuration not stated)
OUTCOME MEASURE: INHIBITION
OBSERVED: -33.9%
--
MOLECULE: CN(C)CCN(Cc1ccc(F)cc1)C(=O)c1ccn(C)c(=O)c1
OUTCOME MEASURE: INHIBITION
OBSERVED: 39.1%
--
MOLECULE: O=C(NCCc1ccc(Cl)s1)NCc1nnc2n1CCCC2
OUTCOME MEASURE: INHIBITION
OBSERVED: 21%
--
MOLECULE: CN(C(=O)C1CCC1)C1CCN(c2ccccc2Cl)C1=O (configuration not stated)
OUTCOME MEASURE: INHIBITION
OBSERVED: 1.74%
--
MOLECULE: Cc1ccc(CNC(=O)c2cc(CN3CCC(O)CC3)on2)s1
OUTCOME MEASURE: INHIBITION
OBSERVED: 13.7%
--
MOLECULE: CN(Cc1cnn(C)c1)C(=O)NCc1nnc2n1CCC2
OUTCOME MEASURE: INHIBITION
OBSERVED: -22.6%
--
MOLECULE: CN(C)C(=O)NCc1nnc2n1CCN(Cc1cccs1)C2
OUTCOME MEASURE: INHIBITION
OBSERVED: 27.7%
--
MOLECULE: CC(=O)N(C)c1nc(CN2CCN(c3nccs3)CC2)cs1
OUTCOME MEASURE: INHIBITION
OBSERVED: 38.3%
--
MOLECULE: Cc1noc([C@@]23CCO[C@@H]2CCN(S(=O)(=O)c2cccnc2)C3)n1
OUTCOME MEASURE: INHIBITION
OBSERVED: 44.8%
--
MOLECULE: Cc1cc(C)n(CC(=O)N2CCC(Nc3cccnn3)CC2)n1
OUTCOME MEASURE: INHIBITION
OBSERVED: -7.95%
--
MOLECULE: Cc1ccccc1NC(=O)N1CCN(C(=O)C2CC2)[C@@H]2CS(=O)(=O)C[C@@H]21
OUTCOME MEASURE: INHIBITION
OBSERVED: -5.22%
--
MOLECULE: CC(=O)N1CCN(C(=O)Nc2ccccc2Cl)[C@H]2CS(=O)(=O)C[C@H]21
OUTCOME MEASURE: INHIBITION
OBSERVED: 72%
--
MOLECULE: O=C(Nc1ccccc1Cl)N1CCN(CC2CC2)[C@@H]2CS(=O)(=O)C[C@@H]21
OUTCOME MEASURE: INHIBITION
OBSERVED: 52.2%
--
MOLECULE: CC(CN1CCOCC1)NC(=O)NCc1ccc(Cl)s1 (configuration not stated)
OUTCOME MEASURE: INHIBITION
OBSERVED: -34.7%
--
MOLECULE: O=C(CN1CCN(CCO)CC1)NCc1ccc(Cl)s1
OUTCOME MEASURE: INHIBITION
OBSERVED: 53.8%
--
MOLECULE: CCCS(=O)(=O)N1CC[C@H]2OCC[C@@]2(c2nnc(C)o2)C1
OUTCOME MEASURE: INHIBITION
OBSERVED: 55.5%
--
MOLECULE: N#Cc1ccc(OCC(O)CN2CCC(c3ccn[nH]3)CC2)cc1 (configuration not stated)
OUTCOME MEASURE: INHIBITION
OBSERVED: 7.08%
--
MOLECULE: CS(=O)(=O)NCc1nnc2n1CCN(Cc1ccncc1)C2
OUTCOME MEASURE: INHIBITION
OBSERVED: 64.9%
--
MOLECULE: Cc1ccc(CNC(=O)CN(C)CC2CCN(CCO)CC2)s1
OUTCOME MEASURE: INHIBITION
OBSERVED: 53.8%
--
MOLECULE: CN(C)CCOCc1nnc2n1CCN(Cc1cccs1)CC2
OUTCOME MEASURE: INHIBITION
OBSERVED: -35%
--
MOLECULE: CS(=O)(=O)NCc1nnc2n1CCN(Cc1cccnc1)C2
OUTCOME MEASURE: INHIBITION
OBSERVED: 45.1%
--
MOLECULE: CC(C)OCCCNC(=O)CN1CCN(c2nccs2)CC1
OUTCOME MEASURE: INHIBITION
OBSERVED: -20.5%
--
MOLECULE: Cc1ccnc(C2CCCN2C(=O)CN(C)C)n1 (configuration not stated)
OUTCOME MEASURE: INHIBITION
OBSERVED: -16.5%
--
MOLECULE: CN(Cc1cccc(F)c1)C(=O)c1cc2c([nH]c1=O)CCCC2=O
OUTCOME MEASURE: INHIBITION
OBSERVED: 8.535%
--
MOLECULE: N#Cc1ccc(OCC(O)CN2CCN(c3nccs3)CC2)cc1 (configuration not stated)
OUTCOME MEASURE: INHIBITION
OBSERVED: 87.6%
